- Organism: Sus scrofa
- Test method notes: Inhibition of porcine heart MDH using oxaloacetic acid as substrate assessed as enzyme recovery by measuring residual activity at approximately IC90 preincubated for 5 mins in presence of triton X-0.01% followed by substrate and […] addition and measured for 80 sec by absorbance based analysis relative to control
- Measurement parameters: time 380.0 sec
Returns rule met if the recorded Activity is greater than or equal to 80%, and rule not met otherwise.

The examples below pair each entry with its known result.
{"Compound": "O=C(O[C@@H]1Cc2c(O)cc(O)cc2O[C@@H]1c1cc(O)c(O)c(O)c1)c1cc(O)c(O)c(O)c1 [EPIGALOCATECHIN GALLATE]", "Class label": "rule not met"}
{"Compound": "CCOC(=O)c1c(CSc2ccccc2)n(C)c2cc(Br)c(O)c(CN(C)C)c12", "Class label": "rule not met"}
{"Compound": "Oc1ccc(-c2[o+]c3cc(O)cc(O)c3cc2O)cc1.[Cl-] [PELARGONIDIN CHLORIDE]", "Class label": "rule met"}
{"Compound": "O=c1cc(-c2ccc(O)c(-c3c(O)cc(O)c4c(=O)cc(-c5ccc(O)cc5)oc34)c2)oc2cc(O)cc(O)c12", "Class label": "rule met"}

With those in mind, consider the next compound.
Prompt line: Evaluate C[C@]12CC[C@@H]3c4ccc(OC(=O)c5ccccc5)cc4CC[C@H]3[C@@H]1CC[C@@H]2O [ESTRADIOL BENZOATE] : Activity at minimum 80%?
Response line: rule met

###

- Species on record: Sus scrofa
- Test method notes: Inhibition of porcine heart MDH using oxaloacetic acid as substrate assessed as enzyme recovery by measuring residual activity at approximately IC90 preincubated for 5 mins in presence of triton X-0.01% followed by substrate and […] addition and measured for 80 sec by absorbance based analysis relative to control
- Measurement parameters: time 380.0 sec
Let's look at some molecules and their measured Activity.
Give your result in % as a bare value.

Example results:
{"Structure string": "COc1c(O)cc2oc(-c3ccccc3)cc(=O)c2c1O", "Recorded measurement": 42}
{"Structure string": "COc1cc(/C=C/C(=O)CC(=O)/C=C/c2ccc(O)c(OC)c2)ccc1O", "Recorded measurement": 116}
{"Structure string": "Cc1cc(O)c2c(=O)c3c(O)cc(O)c4c5c(O)cc(O)c6c(=O)c7c(O)cc(C)c8c1c2c(c34)c(c78)c65", "Recorded measurement": 90}

Next, consider the following molecule.
Prompt line: # return recorded Activity for input `O=c1c(O)c(-c2ccc(O)c(O)c2)oc2cc(O)cc(O)c12`
Response line: 61

###

- Organism: Sus scrofa
- Test method notes: Inhibition of porcine heart MDH using oxaloacetic acid as substrate assessed as enzyme recovery by measuring residual activity at approximately IC90 preincubated for 5 mins in presence of 10 mg/ml BSA followed by enzyme addition and measured after 5 mins by absorbance based analysis relative to control
- Measurement parameters: time 10.0 min
Let's look at some compounds and their measured Activity.
Give your result in % as a bare value.

Example results:
{"Structure string": "O=c1cc(-c2ccc(O)c(-c3c(O)cc(O)c4c(=O)cc(-c5ccc(O)cc5)oc34)c2)oc2cc(O)cc(O)c12", "Activity / %": 78}
{"Structure string": "Cc1cc(O)c2c(c1)C(=O)c1cc(O)cc(O)c1C2=O", "Activity / %": 67}
{"Structure string": "COc1c(O)cc2oc(-c3ccccc3)cc(=O)c2c1O", "Activity / %": 33}

Next, consider the following compound.
Prompt line: # return recorded Activity for input `C=C(C)[C@@H]1CCC(C)=C[C@H]1c1c(O)cc(CCCCC)c(C(=O)O)c1O`
Response line: 61
